The measurements presented in this section are drawn from patent US9623028B2.

# Test Target: CLK1 (Homo sapiens (Human), UniProt P49759)
# Sequence (P49759 whole entry): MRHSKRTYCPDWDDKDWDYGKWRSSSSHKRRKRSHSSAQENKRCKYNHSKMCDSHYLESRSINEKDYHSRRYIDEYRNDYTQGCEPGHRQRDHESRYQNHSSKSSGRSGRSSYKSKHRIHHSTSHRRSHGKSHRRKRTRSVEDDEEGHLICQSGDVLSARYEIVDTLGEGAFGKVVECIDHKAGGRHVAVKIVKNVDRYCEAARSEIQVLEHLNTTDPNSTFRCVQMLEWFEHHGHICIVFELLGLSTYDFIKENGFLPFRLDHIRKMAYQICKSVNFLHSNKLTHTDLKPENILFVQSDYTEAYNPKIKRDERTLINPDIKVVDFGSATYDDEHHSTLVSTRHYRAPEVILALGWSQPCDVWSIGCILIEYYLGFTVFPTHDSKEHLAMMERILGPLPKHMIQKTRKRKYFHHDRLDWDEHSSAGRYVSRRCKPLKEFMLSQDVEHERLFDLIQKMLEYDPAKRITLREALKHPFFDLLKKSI
# Measurement Protocol: biochemical
# Recorded Conditions: read-out: CLK1 (% Inh.), % inhibition at 3 μM
Please go through the items and note down their inhibition at 3 µM.
The reply should be a number in %, with the unit left off.

Task: Answer with the recorded inhibition at 3 µM for the molecule listed here: CNC(=O)c1ccc(-c2c[nH]c3nc(Nc4ccc(C(=O)NC)cc4Cl)nc(OC4CCOCC4)c23)cc1
Output: 99

Task: Answer with the recorded inhibition at 3 µM for the molecule listed here: CNC(=O)c1ccc(Nc2nc(NC(C)C)c3c(-c4ccc5nc(C)oc5c4)c[nH]c3n2)c(OC)c1
Output: 99

Task: Answer with the recorded inhibition at 3 µM for the molecule listed here: CNC(=O)c1ccc(Nc2nc(OC3CCOCC3)c3c(-c4ccc(-c5nc(C)c[nH]5)cc4)c[nH]c3n2)c(OC)c1
Output: 99

Task: Answer with the recorded inhibition at 3 µM for the molecule listed here: CNC(=O)c1ccc(Nc2nc(OC3CCOCC3)c3c(-c4cnn(C)c4)c[nH]c3n2)c(OC)c1
Output: 101
